The measured values listed here are drawn from paper PMC12169663.

- Assay details: Plasma stability assay, human plasma
- Assay type: in vitro ADME
- Condition info: 37 °C, up to 24 h, single experiment, read-out: t1/2 (plasma), human
Measurement name: half-life

The molecule listed as C[C@@H](O)[C@H](NC(=O)[C@@H]1CSSC[C@H](NC(=O)[C@@H](Cc2ccccc2)NC(=O)COCCOCCNC(=O)[C@H](Cc2cn(-c3ccc(C(=O)N[C@@H](CCCCNC(=O)CCCc4ccc(F)cc4)C(N)=O)cc3)nn2)NC(=O)CC[C@H](C(=O)O)N2CCN(CC(=O)O)CCN(CC(=O)O)CC2)C(=O)N[C@@H](Cc2ccc(O)cc2)C(=O)N[C@H](Cc2c[nH]c3ccccc23)C(=O)N[C@@H](CCCCN)C(=O)N[C@@H]([C@@H](C)O)C(=O)N1)C(=O)O [[64Cu]Cu-NODAGA-cLAB5-TATE, metal not drawn] has a reported half-life of > 24 h
